Tested on: NIH3T3
experiment-notes: Cytotoxic Profiling of Annotated Libraries Using Quantitative High-Throughput Screening (AID 1296008); further: nearly all actives have a fitted effect of over 60% in size
settings: Five cell lines viability, CellTiter-Glo ATP luminescence, 48-72 h
Results filed as inconclusive are left out. Activity calls are given as the source filed them. The call rests on the fitted dose curve; in most records, active means well fitted inhibition curve with a large enough effect; inconclusive means small, poorly fitted or top-dose-only effect; inactive means flat fitted curve, though single readings scatter.
Outcome codes: 1 for active, 0 for inactive

molecule=CC(C)(O)c1cc2nc(-c3cnc(N)nc3)nc(N3CCOCC3)c2s1 label=1
molecule=Cc1cnc(-c2cnc(NCCNc3ccc(C#N)cn3)nc2-c2ccc(Cl)cc2Cl)[nH]1 label=0
molecule=COCCOc1ccc2c(c1)ncn2-c1ccc2cccc(N3CCC(N)CC3)c2n1 label=1
molecule="CC(NCc1ccc2c(c1)nc(NC(=O)c1ccc(-c3cn[nH]c3)s1)n2CC(C)(C)O)C(C)(C)C (stereo not given)" label=1
molecule=O=C(NC1CCNCC1)c1[nH]ncc1NC(=O)c1c(Cl)cccc1Cl label=1
molecule="CN(C1CCc2c(c3ccccc3n2CC(=O)O)C1)S(=O)(=O)c1ccc(F)cc1 (stereo not given)" label=0
molecule=Cc1cn2cc(C(=O)N(C)CCO)cc(N[C@@H]3CCOc4cccc(C)c43)c2n1 label=0
molecule=Nc1nccc(Oc2ccc(NC(=O)c3c[nH]cc(-c4ccc(F)cc4)c3=O)cc2F)c1Cl label=1
molecule=COc1cc(C(=O)N2CCC(N3CCN(C)CC3)CC2)ccc1Nc1ncc2c(n1)N(C)c1ccccc1C(=O)N2C label=1
molecule=CCCCc1nc2cc(C=CC(=O)NO)ccc2n1CCN(CC)CC label=1

Where do the numbers come from? From PubChem BioAssay (NCATS).
